ASSAY SYSTEM: Glucocorticoid receptor (Homo sapiens, UniProt P04150)
Sequence (P04150 whole entry): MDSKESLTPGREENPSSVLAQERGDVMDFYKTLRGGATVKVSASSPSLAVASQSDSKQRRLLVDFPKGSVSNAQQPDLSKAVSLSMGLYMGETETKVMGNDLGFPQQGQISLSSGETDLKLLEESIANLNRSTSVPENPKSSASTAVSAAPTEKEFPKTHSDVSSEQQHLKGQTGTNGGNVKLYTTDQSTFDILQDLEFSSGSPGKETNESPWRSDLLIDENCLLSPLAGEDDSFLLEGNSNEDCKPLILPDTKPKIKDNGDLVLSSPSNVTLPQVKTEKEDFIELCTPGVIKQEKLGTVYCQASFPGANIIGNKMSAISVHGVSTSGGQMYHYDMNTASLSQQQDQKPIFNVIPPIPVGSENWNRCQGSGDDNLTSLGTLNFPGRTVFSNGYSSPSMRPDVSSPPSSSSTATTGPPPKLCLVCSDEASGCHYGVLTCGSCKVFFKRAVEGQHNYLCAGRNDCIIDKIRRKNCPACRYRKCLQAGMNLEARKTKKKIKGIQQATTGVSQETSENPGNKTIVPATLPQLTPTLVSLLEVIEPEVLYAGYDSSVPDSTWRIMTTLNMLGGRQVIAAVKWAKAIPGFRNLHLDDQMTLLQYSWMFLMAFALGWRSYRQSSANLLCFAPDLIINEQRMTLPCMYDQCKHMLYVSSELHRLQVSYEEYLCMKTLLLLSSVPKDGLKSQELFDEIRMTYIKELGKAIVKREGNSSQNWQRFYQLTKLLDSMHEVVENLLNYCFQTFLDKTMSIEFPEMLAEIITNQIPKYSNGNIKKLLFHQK
TEST: Modulation of glucocorticoid receptor (unknown origin) transfected in human HeLa cells assessed as transrepression by measuring inhibition of TNF-alpha induced NF-kappaB signalling incubated for 18 hrs by dual-luciferase reporter based assay
Type: cell-based
RECORDED METRIC: IC50 (nM)

Example entries begin here.
> print(dat)
                      smiles.representation                              assay.system  result.units  quantitative.result
1  O=C(c1ccco1)N1CCCc2cc(N(S(=O)(=O)c3cccs3)S(=O)(=O)c3cccs3)ccc21  Glucocorticoid receptor (Homo sapiens, UniProt P04150)            nM                 1050
2  COc1cc(C)c(Cl)cc1S(=O)(=O)Nc1ccc2c(c1)CCCN2C(=O)c1cccs1  Glucocorticoid receptor (Homo sapiens, UniProt P04150)            nM                  170
3  O=C(c1ccco1)N1CCCc2cc(N(S(=O)(=O)c3ccc(Cl)cc3)S(=O)(=O)c3ccc(Cl)cc3)ccc21  Glucocorticoid receptor (Homo sapiens, UniProt P04150)            nM                  450
4  O=C(c1ccco1)N1CCCc2cc(NS(=O)(=O)c3ccccc3)ccc21  Glucocorticoid receptor (Homo sapiens, UniProt P04150)            nM                 3990

[P] CCCCc1ccc(C(=O)N2CCCc3cc(NS(=O)(=O)c4cc(Cl)c(C)cc4OC)ccc32)cc1
[Q] COc1cc(C)c(Cl)cc1S(=O)(=O)Nc1ccc2c(c1)CCCN2C(=O)c1ccco1
Request: Look at P and Q . Which one has the lower recorded IC50 number? Your choice should be expressed through its label.
Response: Q
(Q: 50 nM, P: 100 nM)

Source of measurements: ChEMBL document CHEMBL5236596
